Target: Phosphorylase b kinase gamma catalytic chain, skeletal muscle/heart isoform (Homo sapiens);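 also: values are averaged percent inhibition of PHKG1 kinase activity, from the GSK PKIS inhibitor-set screen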
Conditions: at 0.1 µM
test-readout: inhibition (%)
Numeric answer only, unit % assumed.

Example entries begin here.
CS(=O)(=O)CCNCc1ccc(-c2ccc3ncnc(Nc4ccc(OCc5cccc(F)c5)c(C(F)(F)F)c4)c3c2)o1 = 5.41
CCc1cccc(NC(=O)Nc2ccc(Oc3ccc4nc(NC(=O)OC)[nH]c4c3)cc2)c1 = -0.84
Nc1nc(-c2ccccn2)c(-c2ccc3ncccc3n2)s1 = 0.58
CCN1CCC(CC(=O)Nc2n[nH]c3nc(-c4cccs4)c(Br)cc23)CC1 = 2.37
CC(C)=Cc1cccc2c1/C(=N/Nc1ccc(S(N)(=O)=O)cc1)C(=O)N2 = 0.64
COc1cc2ncn(-c3cc(OCc4ccccc4Cl)c(C(N)=O)s3)c2cc1OC = 3.72
Fc1cccc(COc2ccc(Nc3ncnc4cc(-c5ccc[nH]5)sc34)cc2Cl)c1 = 3.19
NS(=O)(=O)c1ccc(N/N=C2\C(=O)Nc3ccc(C(=O)NCCc4c[nH]cn4)cc32)cc1 = 14.2

Field: next compound
I am curious: what inhibition value has been reported for `CCn1c(-c2nonc2N)nc2cnc(Oc3cccc(NC(=O)c4ccc(OCCN5CCOCC5)cc4)c3)cc21` ? -3.59
